assay: ATG_AP_2_CIS: Attagene CIS-FACTORIAL HepG2 Assay for human Activator Protein 2 (AP-2) (AID 2282932); settings: HepG2 AP-2 cis-reporter, Attagene transcription factor profiling; actives raise or lower the signal
Calls of active or inactive are those of the source. Rule for the calls: active = hit-call score of the fitted dose curve at least 0.9, where 1 is the maximum; inactive = score below 0.9.
Mark one answer only. Choices: active, inactive

INPUT: Kindly provide the recorded test outcome for the following compound: CC1=Nc2ccc3ccccc3c2C1(C)C
OUTPUT: inactive

INPUT: Kindly provide the recorded test outcome for the following compound: O=C1C=CC(=O)O1
OUTPUT: inactive

INPUT: Kindly provide the recorded test outcome for the following compound: FC(F)=C(F)OC(F)(F)C(F)(F)C(F)(F)F
OUTPUT: inactive

INPUT: Kindly provide the recorded test outcome for the following compound: Cc1ccc(C(C)(C)C)cc1
OUTPUT: inactive

INPUT: Kindly provide the recorded test outcome for the following compound: CCN(CC)c1ccc(C(=O)c2ccccc2C(=O)O)c(O)c1
OUTPUT: inactive

INPUT: Kindly provide the recorded test outcome for the following compound: O=C(c1ccccc1)C1CCC1
OUTPUT: inactive

INPUT: Kindly provide the recorded test outcome for the following compound: O=C1CCCN1CCO
OUTPUT: inactive

INPUT: Kindly provide the recorded test outcome for the following compound: CC(C)(C)c1ccc(N)cc1
OUTPUT: inactive

INPUT: Kindly provide the recorded test outcome for the following compound: Cc1ccc(OC(=O)CC(C)C)cc1
OUTPUT: inactive

INPUT: Kindly provide the recorded test outcome for the following compound: C=CC(=O)OCCOC(=O)C=C
OUTPUT: active

INPUT: Kindly provide the recorded test outcome for the following compound: CC1(C)O[C@@H]2C[C@H]3[C@@H]4C[C@H](F)C5=CC(=O)C=C[C@]5(C)[C@@]4(F)[C@@H](O)C[C@]3(C)[C@]2(C(=O)CO)O1
OUTPUT: inactive

INPUT: Kindly provide the recorded test outcome for the following compound: Cn1c(=O)[nH]c2ncn(C)c2c1=O
OUTPUT: inactive

INPUT: Kindly provide the recorded test outcome for the following compound: Nc1ccc(-c2ccc(F)cc2)cc1
OUTPUT: inactive

INPUT: Kindly provide the recorded test outcome for the following compound: CNC(=S)N(C)C
OUTPUT: inactive

INPUT: Kindly provide the recorded test outcome for the following compound: CC(C)(C)C(=O)CCc1ccc(Cl)cc1
OUTPUT: inactive

INPUT: Kindly provide the recorded test outcome for the following compound: C[Si](C)(C)O[Si](O)(O)O
OUTPUT: inactive

INPUT: Kindly provide the recorded test outcome for the following compound: CC1=NN(c2cc(S(=O)(=O)O)ccc2Cl)C(=O)C1N=Nc1ccccc1 (configuration not stated)
OUTPUT: inactive

Where do the numbers come from? From PubChem BioAssay (EPA / NIEHS).
